Tested on: BT474 [human breast carcinoma, overexpressing HER2 (ErbB2)]
test description: In vitro tumor cell proliferation assay (Cell Titer-Glo luminescent cell viability), BT474 cells
Format: cell-based
condition: BT-474, 72 h, 72 hours of drug exposure, Cell Titer-Glo readout, read-out: IC50, anti-proliferative activity in BT474 cells
pIC50: −log10 of the molar value. Structures can show the parent of a compound that is named as a salt.
As shown below, each of these compounds has a reported pIC50 value.

Sample answers from the record:
1) Clc1cc(Nc2ncnc3sc4cc(CCN5CCCC5)ccc4c23)ccc1OCc1ccccn1 [Example 87, trifluoroacetate]
≥ 5.30
2) Fc1cccc(Cn2ncc3cc(Nc4ncnc5sc6cc(Br)ccc6c45)ccc32)c1
≥ 5.30
3) CN1CCN(CCc2ccc3c(c2)sc2ncnc(Nc4ccc(OCc5cccc(F)c5)c(Cl)c4)c23)CC1
≥ 6.30
4) OC[C@H](O)c1ccc2c(c1)sc1ncnc(Nc3ccc4c(cnn4Cc4cccc(F)c4)c3)c12
≥ 6.30
5) CN1CCN(C(=O)Cc2ccc3c(c2)sc2ncnc(Nc4ccc(OCc5ccccn5)c(Cl)c4)c23)CC1
≥ 6.30

GET /value?item= O=C(Cc1ccc2c(c1)sc1ncnc(Nc3ccc(OCc4cccc(F)c4)c(Cl)c3)c12)N1CCNCC1 [Example 31, hydrochloride] &field=pIC50 returns ≥ 6.30

GET /value?item= OCC(O)c1ccc2c(c1)sc1ncnc(Nc3ccc4c(cnn4Cc4ccccn4)c3)c12 (stereo not shown) &field=pIC50 returns ≥ 6.30
